Reported koff values for a set of binders
Test System: T1, human 5T4-His protein (human, UniProt Q13641 32-355)
T1 construct: also called recombinant 5T4 protein (human 5T4-his tag); human 5T4 protein; not shown: His tag
T1 sequence (looked up): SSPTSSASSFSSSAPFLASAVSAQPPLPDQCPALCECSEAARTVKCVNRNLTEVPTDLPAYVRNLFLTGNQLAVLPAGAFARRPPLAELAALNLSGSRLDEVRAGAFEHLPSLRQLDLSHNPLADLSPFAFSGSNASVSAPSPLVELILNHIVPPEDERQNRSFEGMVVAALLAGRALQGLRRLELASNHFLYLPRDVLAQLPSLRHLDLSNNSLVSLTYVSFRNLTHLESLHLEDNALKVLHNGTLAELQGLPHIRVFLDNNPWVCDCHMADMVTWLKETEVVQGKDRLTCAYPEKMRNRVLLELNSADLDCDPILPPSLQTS
Test Description: SPR Biacore, Protein A capture, 50 nM 5T4-His
All answers are understood in s⁻¹, so give the number only.

Please review the entries below; each comes with its answer.
1) Hu159D5-12 (antibody, V domains shown, humanized) VH: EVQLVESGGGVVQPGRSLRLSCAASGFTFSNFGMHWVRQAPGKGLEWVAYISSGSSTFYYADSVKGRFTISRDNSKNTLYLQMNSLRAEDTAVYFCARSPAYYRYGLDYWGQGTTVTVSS VL: DIVLTQSPDSLAVSLGERATINCRASQSVSSSTFSYMHWYQQKPGQPPKLLIKSSSNLESGVPDRFSGSGSGTDFTLTISSLQAEDVAVYYCQHSWEIPYTFGGGTKVEIK; 0.000267
2) Hu159D5-9 (antibody, V domains shown, humanized) VH: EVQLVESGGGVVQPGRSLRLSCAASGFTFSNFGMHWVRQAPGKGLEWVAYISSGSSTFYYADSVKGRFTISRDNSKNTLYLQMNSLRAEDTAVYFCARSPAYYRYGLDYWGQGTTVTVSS VL: DIVLTQTPLSLSVTPGQPASISCRASQSVSSSTFSYMHWYQQKPGQPPQLLIKSSSNLESGVPDRFSGSGSGTDFTLKISRVEAEDVGVYYCQHSWEIPYTFGGGTKVEIK; 0.000221

# context switch: different binder, same koff
Asked: Need koff, item 159D5-P1 (antibody, V domains shown, chimeric 159D5 with S62A (DS to DA) in VH CDR2; also called PTM removal antibody of 159D5-P1; 159D5-VH.S62A with 159D5 VL) VH: DVQLVESGGGLVQPGGSRKLSCTASGFTFSNFGMHWVRQAPETGLEWVAYISSGSSTFYYADAVKGRFTISRDNPKNTLFLQMTSLRSEDTAMYFCARSPAYYRYGLDYWGQGTTLTVSS VL: DIVLTQSPASLAVSLGQRATISCRASQSVSSSTFSYMHWYQQKPGQPPKLLIKSSSNLESGVPARFSGSGSGTDFTLNIHPVEEEDTATYYCQHSWEIPYTFGGGTKLEIK
Given back: 0.000163
